Attribution: patent US20160152995A1

System: E. coli assay strain Km3
Experiment: Liquid B-galactosidase assays of chlorsulfuron repressor hits (induction and repression)
Conditions: CsL4.2 hits; liquid B-galactosidase assay, 20 ppb Cs
valueType: IND = induction with 20 ppb CS (B-galactosidase)

1) CsL4.2-23 (protein, Sulfonylurea responsive repressor) MARLDKSKVINSALELLNEVGIEGLTTRKLAQKLGVEQPTLYWHVKNKRALLDALAIEMMDRHQTHYLPLEGESWQDYLRNFAKSMRCALLSHRDGAKVALGTRWTEQQYETAENMLAFLTQQGFSLENALYATSAVRVFTLGAVLLDQEQQVAKEERETPTPDRMPPLLRQAWELKVHQGAEPAFLFGLELIIAGLEKQLKRESGSHHHHHH    10.4
2) CsL4.2-27 (protein, Sulfonylurea responsive repressor) MARLDKSKVINSALELLNEVGIEGLTTRKLAQKLGVEQPTLYWHVKNKRALLDALAIEMMDRHQTHYLPLEGESWQDFLRNFAKSMRCALLSHRDGAKVSLGTRWTEQQYETAENMLAFLTQQGFSLENALYATDAVRVFTLGAVLLDQEQQVAKEERETPTPDRMPPLLQQAWELKEHQGAEPAFLFGLELIIAGLEKQLKRDSGSHHHHHH    3.2
